Procedure Text: NCI Yeast Anticancer Drug Screen. Data for the cln2 rad14 strain (AID 165);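 also: 0% = growth equal to vehicle treated cultures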
Details: S. cerevisiae cln2 rad14 strain, at 50.0 µM, active compounds read high
Compounds without any hit were thinned out: in the full panel of roughly 79,000, 15% have a hit. The source made the active and inactive calls. Rule as the data show it: active = growth inhibition above about 70%; inactive = the rest.
Measure: growth inhibition

Recorded results for 3 compounds are shown here.
>>> observed_measurement("CCCc1cc2c(cc1CS(=O)(=O)CC)OCO2")
"23.3% (inactive)"
>>> observed_measurement("CCCC/C=C1/CCC(CN(C)C)C1=O (configuration not stated)")
"46.2% (inactive)"
>>> observed_measurement("Cc1cc([N+](=O)[O-])cc(C)c1OC(=O)Nc1c(Cl)cccc1Cl")
"22.1% (inactive)"

List growth inhibition for every entry below, keeping the order given.
1. CC1NC(=O)OC1(C)c1ccccc1 (configuration not stated)
2. CCN(CC)c1ccc(NC(C(=O)c2ccccc2)c2ccc3c(c2)OCO3)cc1 (configuration not stated)
3. CN(C)CCC(=O)N1C/C(=C\c2ccc(Cl)c(Cl)c2)C(=O)/C(=C/c2ccc(Cl)c(Cl)c2)C1
4. Clc1ccc(CN2COc3c(ccc4ccccc34)C2)cc1

Output:
-35.8% (inactive)
-8.35% (inactive)
90% (active)
61.1% (inactive)

Provide reported growth inhibition for each item, in the same order as listed.
1. O=C1c2cc([N+](=O)[O-])ccc2-c2cc([N+](=O)[O-])ccc21
2. O=C(Cn1nnc2ccccc21)N1CCN(c2ccccc2)CC1

Output:
["68% (inactive)", "43.8% (inactive)"]

Give me growth inhibition for each of these compounds, listed below.
1. O=C(OCCCN1CCCC1)C(c1ccccc1)C1CCCCC1 (configuration not stated)
2. CN(C)CCCC(C#N)(CCCN(C)C)c1ccccc1
3. S=C(N/N=C/c1ccccn1)N1CCCCC1
4. CC(CCC(=O)O)(Nc1ccc([N+](=O)[O-])cc1[N+](=O)[O-])C(=O)O (configuration not stated)

Output:
79.8% (active)
-51.6% (inactive)
93% (active)
91.9% (active)

Need growth inhibition for each of these compounds.
1. Cc1cccc2c(CBr)cc(=O)[nH]c12
2. CN1C=C(C#N)CCC1Sc1ccc(Cl)cc1 (configuration not stated)
3. Cc1ccc2sc(=S)sc2c1
4. COc1ccc(C(C)c2cc3c(cc2OC/C(C)=N/NC(N)=O)OCO3)cc1 (configuration not stated)
5. OCc1cc2c([nH]c3ccccc32)c(C(O)CO)n1 (configuration not stated)
6. Cc1ccc(SSCCCCS(=O)O)cc1

Output:
1. 91.5% (active)
2. 76.8% (active)
3. 74.2% (active)
4. 19.6% (inactive)
5. 92.7% (active)
6. 84.9% (active)

Hi there! I need growth inhibition for each item below, if you can.
1. CN(C)CCCCN1c2ccccc2Sc2ccc(C(=O)c3ccccc3)cc21
2. CC/C(=C(\CC)c1ccc(OCCN2CCOCC2)cc1)c1ccc(OCCN2CCOCC2)cc1
3. O=C1c2ccccc2CC(Br)c2ccccc21 (configuration not stated)
4. CCCCCN(CCCCC)CC(C)(C)C(O)c1ccc(OC)c2ccccc12 (configuration not stated)
5. CCC(C)SSc1ccccc1C(=O)Nc1ccc(Cl)cc1 (configuration not stated)
6. Oc1ccc(Cl)cc1-c1ccccc1

Output:
1: 99.3% (active); 2: 83.5% (active); 3: 1.7% (inactive); 4: 86.9% (active); 5: 74.1% (active); 6: 74.2% (active)

Batch request: growth inhibition for each of the following compounds.
1. O=C(/C(O)=C(\O)C(=O)N(C1CCCCC1)C1CCCCC1)N(C1CCCCC1)C1CCCCC1
2. ClCc1ccc2oc3ccccc3c2c1

Output:
["79.7% (active)", "43.5% (inactive)"]

For each of the items listed, what is its growth inhibition?
1. Cc1cn(C(C#N)=C(C#N)C#N)c2ccccc12
2. O=C1Oc2ccccc2C(=O)/C1=C/N1C(=O)/C(=C/c2ccc([N+](=O)[O-])cc2)SC1=S
3. CC(=O)NCCN(C)C
4. O=NN(CCCl)C(=O)Nc1cc(Cl)ccc1O
5. Cc1ccc(NNC(=O)C(O)C(O)C(O)C(O)CO)cc1 (configuration not stated)

Output:
-37.4% (inactive)
92.1% (active)
85.7% (active)
8.45% (inactive)
41.8% (inactive)

Kindly give each listed record's growth inhibition.
1. O=C1C=CC(=O)C2C3C=CC(CC3)C12 (configuration not stated)
2. COc1ccc(C2Oc3ccc(Cl)cc3C=C2[N+](=O)[O-])cc1OC (configuration not stated)
3. O=[N+]([O-])c1cc(F)c(Sc2cc(Br)c([N+](=O)[O-])cc2F)cc1Br
4. CCN(CC)CCNC(=O)c1ccc(N=Cc2cc(Cl)cc(Cl)c2O)cc1
5. CC(=O)c1cccc(NC2C(N)C(NC(=O)N(C)C)(C(C)O)C(C)(O)C2(O)COC(=O)c2c(C)cccc2O)c1 (configuration not stated)

Output:
["78.2% (active)", "84.3% (active)", "43.5% (inactive)", "84.8% (active)", "92% (active)"]

###

Hi there, I'd appreciate the recorded growth inhibition for every entry that follows.
Procedure Text: NCI Yeast Anticancer Drug Screen. Data for the mec2-1 strain (AID 157)
Details: S. cerevisiae mec2-1 strain, at 50.0 µM, active compounds read high
Compounds without any hit were thinned out: in the full panel of roughly 79,000, 15% have a hit.
Answers are plain numbers, in %.

Solved entries:
>>> observed_measurement("CCC(=O)c1cc2ccccc2c2ccccc12")
39
>>> observed_measurement("CN(C)C(=S)NC(=S)Nc1ccc2ccccc2c1")
40.9
>>> observed_measurement("O=C1CC(=Nc2ccc([N+](=O)[O-])cc2)NN1c1c(Cl)cc(Cl)cc1Cl")
92
>>> observed_measurement("Cc1c(F)c(C)c(C(=O)O)c(C)c1F")
99.5
>>> observed_measurement("Cc1[nH]nc(C(=O)OC(C)C)c1N=NN(C)C")
98.7

Task: Write down growth inhibition measured for item CC(=O)OC1COC(n2nnc(C#N)c2C#N)C(OC(C)=O)C1OC(C)=O (stereo unspecified)
Output: 82.4

###

Procedure Text: NCI Yeast Anticancer Drug Screen. Data for the cln2 rad14 strain (AID 165);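 also: 0% = growth equal to vehicle treated cultures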
Details: S. cerevisiae cln2 rad14 strain, at 50.0 µM (retest, dose inferred, filed as 5.0)
About 79,000 compounds went through this panel and 15% of them were active in at least one assay; those are over-represented in the sample as a whole. Activity calls are given as the source filed them. Cut-off read from the data, not from the text of the source: active = growth inhibition above about 70%; inactive = the rest.
Hi there, use one of these labels in your reply, thanks! active, inactive

Solved cases below.
>>> qualitative_label("CCCCCCCCC1OC1CCCCCCCC(=O)OCC1CO1 (stereo not drawn)")
"inactive"
>>> qualitative_label("Cc1cc(C)c(CCCC(=O)c2c(C)cc(C)cc2C)c(C)c1")
"inactive"
>>> qualitative_label("ON(C(=Nc1ccc(Cl)cc1)c1ccccc1)c1ccccc1")
"active"
>>> qualitative_label("CC1(C)CC[C@]2(C(=O)O)[C@H](O)C[C@]3(C)C(=CC[C@@H]4[C@@]5(C)CC[C@H](OC6OCC(O)C(O)C6OC6OCC(O)C(O)C6OC6OCC(O)C(O)C6O)C(C)(C)[C@@H]5CC[C@]43C)[C@@H]2C1 (stereo partly drawn)")
"active"
>>> qualitative_label("Oc1c(N(Cc2ccccc2)Cc2ccccc2)ccc2cccnc12")
"active"
>>> qualitative_label("C=C1C(=O)OC2CC(C)C3C=CC(=O)C3CC12 (stereo not drawn)")
"inactive"
>>> qualitative_label("Cc1cc(C)c(S(=O)(=O)n2ccnc2)c(C)c1")
"inactive"
>>> qualitative_label("[Cl-].[La+3].[O-]/N=C(\\c1ccccc1)c1ccccn1.[O-]/N=C(\\c1ccccc1)c1ccccn1.[O-]/N=C(\\c1ccccc1)c1ccccn1")
"inactive"

Task: Write down the call the test reported for this compound. Item: `COc1ccc(C2N(Cc3ccc(Cl)cc3)CCN2Cc2ccc(Cl)cc2)cc1`
Output: inactive

Task: Answer briefly: the call reported for `O=C(c1ccc(O)cc1)c1ccccc1O` in this assay.
Output: inactive

Task: Returns: the outcome recorded for `O=C1C=C(c2ccccc2)O/C1=C\C(=O)c1ccc(Cl)cc1` in this assay.
Output: inactive

Task: Could you kindly confirm the outcome this assay logged for `O=C1C=CC(=O)N1c1ccc(Br)c(Cl)c1` ?
Output: active

Task: Recorded test call requested for OC(CCN1CCOCC1)C1c2ccccc2Cc2ccccc21 (stereo not drawn)
Output: inactive

Task: Please let me know the test result on file for CCCCN(CCCC)/N=C\C1=C2NC(=O)/C(C)=C\C=C/C(OC)C(OC(N)=O)/C(C)=C/C(C)C(O)C(OC)CC(C)CC(=C(OC)C1=O)C2=O (stereo not drawn) .
Output: active

###

Procedure Text: NCI Yeast Anticancer Drug Screen. Data for the mlh1 rad18 strain (AID 175)
Details: S. cerevisiae mlh1 rad18 strain growth inhibition; at 50.0 µM (retest, dose inferred, filed as 5.0); active compounds read high
This is part of a sample that, as a whole, favours compounds with a hit. Of some 79,000 tested, about 15% had one in any assay.
Measure: growth inhibition (%)
Numbers only, in %.

Previously resolved entries follow.
>>> observed_measurement("Cc1[nH]nc(C(=O)N/N=C/c2cccs2)c1N=NN(C)C")
98
>>> observed_measurement("CCCCCCCCCCCCCCCC1=NCCN1C")
99

Provide reported growth inhibition for each item, in the same order as listed.
1. CCCCCOC(=O)CSC#N
2. O=C1CCC(Cc2ccccc2Br)C(=O)N1 (configuration not stated)
3. NC(Cc1nn[nH]n1)C(=O)O (configuration not stated)

Output:
1: 99; 2: 6; 3: -6

Origin of values: PubChem BioAssay (NCI)
